Test system: PPARg:RXRa DBDmut IVT, anti-RXR (DBD mutation: RXRa K156A/R161A, NR concentration 270 nM, RXRa partner concentration 90 nM)
method: PBM binding z-score (relative to random genomic background probes); higher = stronger binding; sequences stand for … in GC…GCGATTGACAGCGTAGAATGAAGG
reported_property: PBM binding z-score

Solved cases below.
GCTAGCAGGCCATTAGGGTCACTCAATGACGGGC
1.02
GTACCAAGGTGTATAGGTCGTTGATGAGTAGGCG
0.000885
GCGACTGGGGCAAAGCATGTTACCATAAGGTTGG
4.73
ACTAGCTGGCCAAGTTTGGGTCACTCAAACAAAG
-0.306
CTATCAAGGTGAACAAGGTCGTTGATTACTATTC
3.58
ATATGTAGGTGATCGGGTCATTCAGTTTGCGCAT
7.23

get_value(item= `CCTACTGGGCCATCAGGTCATTAATATCAACGTT` , readout=PBM binding z-score) returns 4.28

Lookup result for `CCGACTGGGGCATAAGGTTACCTTAAGCCAGCCC` ; measured PBM binding z-score: 2.68

Measured PBM binding z-score of `TCTCGGAGGACACGAAAGGTCACAGCTCGACATC` : 2.07

PBM binding z-score reading for `TCATATAGGTAAAACGTGAAAGTCGGTGTGGTAA` : 6.04

Input `CCTACTGGGCCATCAGGTCAATGATATCAACGTT` . Output PBM binding z-score: 4.61

Value of PBM binding z-score reported for the sequence `GAGACTGGGGCATCAGCAGGTTACCATAACTTAA` is 4.76

----------
System: RARg:RXRa (NR concentration 270 nM, RXRa partner concentration 90 nM)
method: PBM binding z-score (relative to random genomic background probes); higher = stronger binding; sequences stand for … in GC…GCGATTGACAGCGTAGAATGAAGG
Each entry gets NO if its PBM binding z-score stays under 2, and YES if its PBM binding z-score is 2 or above.

# example entries with known answers
TGAAGGAGGTTAAAGATCAGGGAACGTGGCGTCG
NO
TCTCGGAGGATACGAAGGTCAGAGCTTTCCAGAG
NO
CCAGACAGGTGACAAGGTAACTCAGCCTCGATTA
NO
CGTTAAAGTTCAAGGTAACGTAACAGAAAGCAGC
YES
ATCGAAAGGCCGAGGTGAGTATAGAGAAAGGGAA
NO

Request: Check if PBM binding z-score >= 2 (inclusive). Item: `TCGAGTAGGTTACCAATGGGGCATTCAACTTTCT`
Result: NO

Request: Quick check, PBM binding z-score >= 2? `CGTCAAAGTTCAACTAAGGCAACGTAAAGCACGC`
Result: YES

Request: Could you verify whether the entry `AGTCAAAGTTCACTAGGTACCGTAAGATTCAGCT` shows PBM binding z-score of no less than 2?
Result: YES

Request: Could you verify whether the entry `GGAAGGAGGGCATTCGAGTTGATAGCATGGCGAT` shows PBM binding z-score of no less than 2?
Result: NO

Request: Would you say `CCGACTGGGGAAAGGTTACCATAACGCACAGCCA` shows PBM binding z-score at minimum 2?
Result: NO

Request: Identify whether the reported PBM binding z-score of the following sequence is 2 or greater: `ACAGACAGGTGCGTGAAGGTAACTCAGCTGGACG`
Result: NO

Request: Tell me whether PBM binding z-score is at least 2 here: `GCTCGGACGACAAGGTCAGAGCTTTGTCCGTAGA`
Result: YES

----------
Tested on: LXRa homodimer (NR concentration 270 nM)
method: PBM binding z-score (relative to random genomic background probes); higher = stronger binding; sequences stand for … in GC…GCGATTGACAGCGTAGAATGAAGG
Is PBM binding z-score at least -0.3? Then Fulfilled. If not, Not fulfilled.

Example cases with answers are listed next.
GCTAGCAGGCCATTTGGGTGACTCAATGACGGGC
Not fulfilled
TCTAGCAGGCCAGAGGGCCACTCAAGAGGTACGG
Not fulfilled
TAGCCTAGGTCATTTAGGGGCCAGTATAGAAAGC
Fulfilled
CGTCCAAGGTCAATGCTAGGGCAGTGAAAGCATT
Fulfilled
GCGACTGGGGCATCAGCAGGTTACCACAACTTAA
Fulfilled

Moving on to the next sequence.
Request: Kindly determine if PBM binding z-score recorded for `ACTATTAGTTGACTTAGGGCAACAGATACGACGC` is above or exactly -0.3.
Result: Fulfilled

----------
Test system: PPARg:RXRa DBDmut IVT, anti-RXR (DBD mutation: RXRa K156A/R161A, NR concentration 270 nM, RXRa partner concentration 90 nM)
method: PBM binding z-score (relative to random genomic background probes); higher = stronger binding; sequences stand for … in GC…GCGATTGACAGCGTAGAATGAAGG
Would you mind sorting the entries by PBM binding z-score according to these classes? band 1 = under 0.7, band 2 = from 0.7 up to 3, band 3 = 3 and over

Worked examples follow.
CCGACTGGGGCATGGTTACCATAACGCACAGCCA
band 2
ACTAGCAGGCTAAGTTTGGGTCACTCAAACAAAG
band 1

Request: Which PBM binding z-score band matches `CCTCGGAGGACAGAAAGTCAGAGCTGTCCGCTTT` ?
Result: band 1

Request: // bin(item) where item = `CAAACTAGGTCACACAGGTCAAAGTCCGTGCGTA`
Result: band 3

----------
Test system: PPARg:RXRa 270nM:90nM, anti-RXR (NR concentration 270 nM, RXRa partner concentration 90 nM)
method: PBM binding z-score (relative to random genomic background probes); higher = stronger binding; sequences stand for … in GC…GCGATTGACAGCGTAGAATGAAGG
Listed below: PBM binding z-score values for each entry.

Looking up `CAAACTAGGTCAAGGACAGTGAATCTCCGCACGC` , I found its PBM binding z-score recorded as 6.71

Looking up `CCTACTGCGCCATCAGGTCATTGATATCAACGTT` , I found its PBM binding z-score recorded as 0.994

The recorded PBM binding z-score for entry `GCAGACAGGTGAAACGCAGGTAATTCAGGGTGGC` equals -0.127

Reported PBM binding z-score for `TGAATGAGGTTATAAGATCTGGGAACGTTGCAAA` was 1.83

Input `CGTCCAAGGTCATAGGAGCTCAGTGAAGACAGAT` . Output PBM binding z-score: 5.04

The recorded PBM binding z-score for entry `TTACCAAGGTGAATGGTCGTTGATGCACGCCTTG` equals 2.39

Value of PBM binding z-score reported for the sequence `AACACAGGGTCATCGTAGGCCAGAGTACGCACAG` is 5.7

Lab note: measured PBM binding z-score of `ACAGACAGGTGGTGAAGGTAACTCAGGCTATCAT` was -0.194

Entry `CGCACGAGGGCATGAGTTGATAGCAAATGCCGAT` , PBM binding z-score reported as 0.583

# PBM binding z-score (sequence: `ATATGTAGGTTAAGGGTCAGTCAGGTTGGTTCGC` ) is 9.37

Recorded PBM binding z-score (sequence `CCTATTAGTTGACCATAAGGACAACCGAAGCTCG` ): 0.107

PBM binding z-score recorded for this sequence, `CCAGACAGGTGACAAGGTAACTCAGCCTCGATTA` , is 0.508

----------
Tested on: RXRa DBDmut IVT, anti-RXR (DBD mutation: RXRa K156A/R161A, NR concentration 90 nM)
method: PBM binding z-score (relative to random genomic background probes); higher = stronger binding; sequences stand for … in GC…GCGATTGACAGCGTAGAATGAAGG
reported_property: PBM binding z-score

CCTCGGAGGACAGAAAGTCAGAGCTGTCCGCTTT
-0.146
TCTAGTTGGTCAAAGGTCACATACTCGAAATGCG
1.65
CATACAGGGTCAGCTAGTCCAGAGTAGGGACGGC
1.65
CCTTACGGGTCAAGGTTATTGCACGGGTGGTACG
0.197

Recorded PBM binding z-score (sequence `ACTATTAGTTGACTTAGGGCAACTGATACGACGC` ): 0.417

// `TTCCCAAGGTGAAGGTCGTTGATCCCTCTGTAGA` : PBM binding z-score value = -0.0232

Memo: `TAGCCTAGGTCATCGGCCAGTATACCACGCGAAC` , reported PBM binding z-score: 1.02

Form: sequence = `CGAACTGGGTCATCCAGGACAGTGAATACATTGA` ; PBM binding z-score = 1.35

// field: PBM binding z-score; key: `CGAACTAGGTCATTGACAGGACAGAGAATAGTAA` ; value = 2.25

----------
System: PPARa:RXRa (NR concentration 270 nM, RXRa partner concentration 90 nM)
method: PBM binding z-score (relative to random genomic background probes); higher = stronger binding; sequences stand for … in GC…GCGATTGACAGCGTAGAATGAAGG
reported_property: PBM binding z-score
Lab note: record just the number, no unit beside it.

Solved entries (count: 5):
TCAGACAGGTGAAGATAACTCAGGTACGCAGTCG
1.39
AATACAGGGTCACTATGCCAGAGTAGGTACGAAT
5.44
TCGTGTAGGTTACCAATGGGGCATTCAGCTTTCT
1.43
ATCTCTAGGTAACCGAGTTCAGTGAATGCCGAAC
1.44
TTACGAAGGTGAAGGTCGTTGATCCCTCTGTAGA
2.66

Now examine the next entry.
The value of PBM binding z-score measured for the sequence `CCGACTGGGGCATAAGGTTTCCATAAGCCAGCCC` turned out to be 0.26
